Target: T1, TNFR1
T1 chain: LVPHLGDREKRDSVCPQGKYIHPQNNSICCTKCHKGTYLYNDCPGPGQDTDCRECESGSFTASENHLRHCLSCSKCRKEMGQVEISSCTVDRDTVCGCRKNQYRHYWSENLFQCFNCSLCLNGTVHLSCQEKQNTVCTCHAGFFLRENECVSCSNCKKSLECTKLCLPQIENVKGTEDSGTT
endpoint.name: Kd
Please append the unit to your numeric answer.

Which Kd value belongs to DEQHLETELH (modifications not checked) [selective TNFR1 antagonist peptide Hydrostatin-SN10] ?
2800 nM
